- ASSAY: Pharmacokinetic evaluation in SD rats
- Assay type: in vivo
- EXPERIMENTAL_CONTEXT: Sprague-Dawley (SD), rat; male SD rats, iv (tail vein), 1 mg/kg, plasma
ENDPOINT: half-life (min)
Give your result in min as a bare value.

Query half-life for "O=C(Nc1ccc(CNC[C@H](O)c2ccc(O)c3[nH]c(=O)ccc23)cc1)OCC1CCN(C(=O)CCN2CCC(OC(=O)Nc3ccccc3-c3ccccc3)CC2)CC1"
27.6

====

- ASSAY: Pharmacokinetic evaluation in SD rats
- Format: in vivo
- EXPERIMENTAL_CONTEXT: Sprague-Dawley (SD), rat, inhaled or intranasal; male SD rats, it (intratracheal), 1 mg/kg, plasma
ENDPOINT: AUC(0-inf)
The reply must contain the numeric value and, after it, the unit.

Query AUC(0-inf) for "O=C(Nc1ccc(CNC[C@H](O)c2ccc(O)c3[nH]c(=O)ccc23)cc1)OCC1CCN(C(=O)CCN2CCC(OC(=O)Nc3ccccc3-c3ccccc3)CC2)CC1"
0.0116 µg·h/mL
